Assay: Selectivity index, ratio of IC50 for rat L6 cells to IC50 for Trypanosoma brucei rhodesiense STIB900 trypomastigotes
Assay type: toxicity, cell-based
Details: read-out: Ratio IC50
READOUT NAME: selectivity ratio
Give a plain numeric answer without units written out.

Worked examples, 3 compounds total:
COMPOUND STRING	READOUT NAME	MEASUREMENT
COc1cc(C(=N)N)ccc1OCCCOc1ccc(C(=N)N)cc1OC.Cl.Cl	selectivity ratio	4960
Cl.Cl.N=C(N)c1cccc(OCCCOc2cccc(C(=N)N)c2)c1	selectivity ratio	312
N=C(N)c1ccc(OCCCOc2ccc(C(=N)N)cc2[N+](=O)[O-])c([N+](=O)[O-])c1	selectivity ratio	121

# next compound below
// query I am curious: what selectivity ratio value has been reported for Cl.Cl.N=C(N)c1ccc(OCCCCCCOc2ccc(C(=N)N)cc2)cc1 ?
// result 292

---

We begin with a simple list: items and their reported pIC50.
Test system: L6
Assay: Cytotoxicity against rat L6 cells after 70 hrs by alamar blue assay
Format: cell-based
Settings: L6, 70 h
Recall that pIC50 is obtained by taking minus log10 of the concentration measured in molar.

Worked examples, 3 compounds total:
COMPOUND STRING	MEASUREMENT
N=C(N)c1ccc(OCCCOc2ccc(C(=N)N)cc2[N+](=O)[O-])c([N+](=O)[O-])c1	4.64
N=C(N)c1ccc(OCCCOc2ccc(C(=O)O)cc2)cc1	3.78
Cl.Cl.Cl.Cl.N=C(N)c1ccc(OCCCOc2ccc(C(=N)N)cc2Cl)c(Cl)c1	4.61

# next compound below
// query I am curious: what pIC50 value has been reported for Cl.Cl.N=C(Nc1ccc(OCCCCCOc2ccc(NC(=N)c3ccccc3)cc2)cc1)c1ccccc1 ?
// result 5.51

---

System: L6
Experiment: Cytotoxicity against rat L6 cells after 70 hrs by alamar blue assay
Type: cell-based
Details: L6, 70 h
READOUT NAME: pIC50
Recall that pIC50 is obtained by taking minus log10 of the concentration measured in molar.

Worked examples, 3 compounds total:
COMPOUND STRING	pIC50
Cl.Cl.N=C(N)c1cccc(OCCCCCOc2cccc(C(=N)N)c2)c1	4.74
Cl.Cl.N=C(N)c1ccc(OCCCOc2ccc(C3=NCCN3)cc2)cc1	4.15
N=C(N)c1ccc(OCCCCCOc2ccc(C(=N)N)cc2[N+](=O)[O-])c([N+](=O)[O-])c1	4.43

// query # get_value(readout= pIC50, system= L6) for CC(C)NC(=N)c1cccc(OCCCCCCOc2cccc(C(=N)NC(C)C)c2)c1
// result 3.97

// query # get_value(readout= pIC50, system= L6) for Cl.Cl.N=C(N)c1cccc(OCCCCCCOc2cccc(C(=N)N)c2)c1
// result 4.77

// query # get_value(readout= pIC50, system= L6) for Cl.Cl.N=C(N)c1ccc(OCCCOc2ccc(C(=N)N)cc2Br)c(Br)c1
// result 5.19

// query # get_value(readout= pIC50, system= L6) for N=C(N)c1ccc(OCCCCCOc2ccc(N)cc2)cc1
// result 3.92

// query # get_value(readout= pIC50, system= L6) for Cl.Cl.N=C(N)c1cccc(OCCCOc2cccc(C(=N)N)c2)c1
// result 4.79

---

Tested on: L6
Assay: Cytotoxicity against rat L6 cells after 70 hrs by alamar blue assay
Format: cell-based
Settings: L6, 70 h
We begin with a simple list: items and their reported log10 IC50.
All values: log10 IC50 [µM].

Worked examples, 4 compounds total:
COMPOUND STRING	log10 IC50
Cl.N=C(N)c1ccc(NCCCCCNc2ccc(C(=N)N)cc2)cc1	-0.02
N/N=C(\N)c1ccc(OCCCCCOc2ccc(/C(N)=N/N)cc2)cc1	2.14
CNC(=N)c1ccc(OCCCCCOc2ccc(C(=N)NC)cc2)cc1.Cl.Cl	2.18
COc1cc(C2=NCCN2)ccc1OCCCOc1ccc(C2=NCCN2)cc1OC.Cl.Cl	2.02

# next compound below
// query I am curious: what log10 IC50 value has been reported for Cl.Cl.c1cc(C2=NCCN2)ccc1OCCCOc1ccc(C2=NCCN2)cc1 ?
// result 1.88
